system: Rh18 complex spheroid viability, percent test/control; test: Anticancer human tumor Rh18 cell line growth inhibition [Asc]; settings: second compound 0.0949 µM; first compound 0.01 µM; hits give low values;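 note: spheroids exposed to compound for 7 days; 100% = DMSO vehicle control wells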
experimental endpoint: viability, T/C (%)
Expressed in %, but write only the number.

COc1c(OCCCN2CCOCC2)ccc2c3n(c(=NC(=O)c4cnc(N)nc4)nc12)CCN3 + CCN1C(C(=O)NC23CCC(C(=O)O)(CC2)CC3)C(c2cccc(Cl)c2F)C2(C(=O)Nc3cc(Cl)ccc32)C12CCCCC2 : 16.1
NC1CCC(NC2CC2c2ccccc2)CC1 (stereo unspecified) + CCN1C(C(=O)NC23CCC(C(=O)O)(CC2)CC3)C(c2cccc(Cl)c2F)C2(C(=O)Nc3cc(Cl)ccc32)C12CCCCC2 : 19
O=C(c1ccc(F)c(F)c1Nc1ccc(I)cc1F)N1CC(O)([C@@H]2CCCCN2)C1 + CCN1C(C(=O)NC23CCC(C(=O)O)(CC2)CC3)C(c2cccc(Cl)c2F)C2(C(=O)Nc3cc(Cl)ccc32)C12CCCCC2 : 20.1
Cn1ncnc1[C@H]1c2n[nH]c(=O)c3cc(F)cc(c23)N[C@@H]1c1ccc(F)cc1 + CCN1C(C(=O)NC23CCC(C(=O)O)(CC2)CC3)C(c2cccc(Cl)c2F)C2(C(=O)Nc3cc(Cl)ccc32)C12CCCCC2 : 26.6
CCN1CCN(Cc2ccc(Nc3ncc(F)c(-c4cc(F)c5nc(C)n(C(C)C)c5c4)n3)nc2)CC1 + CCN1C(C(=O)NC23CCC(C(=O)O)(CC2)CC3)C(c2cccc(Cl)c2F)C2(C(=O)Nc3cc(Cl)ccc32)C12CCCCC2 : 24.9

Q) In one line, give reported viability, T/C of the entry CNC(C)C(=O)NC1CN(S(=O)(=O)c2cccc(S(=O)(=O)N3CCC4CCC(C(=O)NC(c5ccccc5)c5ccccc5)N4C(=O)C(NC(=O)C(C)NC)C3)c2)CCC2CCC(C(=O)NC(c3ccccc3)c3ccccc3)N2C1=O (stereo unspecified) + CCN1C(C(=O)NC23CCC(C(=O)O)(CC2)CC3)C(c2cccc(Cl)c2F)C2(C(=O)Nc3cc(Cl)ccc32)C12CCCCC2 .
A) 19.3

----------
Tested on: Rh18 complex spheroid viability, percent test/control
Test: Anticancer human tumor Rh18 cell line growth inhibition [Asc];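 note: spheroids exposed to compound for 7 days; 100% = DMSO vehicle control wells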
Details: second compound 0.316 µM; first compound 0.00316 µM; hits give low values
Source text: Multicellular complex tumor spheroid response to apoptosis pathway targeting inhibitors Alrizomadlin, Pelcitoclax, and Dasminapant in combination with a variety of drugs and investigational agents in selected tumor cell lines […] Compounds. […] If the clinical Cmax for an agent had not been determined, the highest concentration tested was 10 microM. […]
experimental endpoint: viability, T/C (%)
Expressed in %, but write only the number.

Cn1ncnc1[C@H]1c2n[nH]c(=O)c3cc(F)cc(c23)N[C@@H]1c1ccc(F)cc1 + CNC(C)C(=O)NC1CN(S(=O)(=O)c2cccc(S(=O)(=O)N3CCC4CCC(C(=O)NC(c5ccccc5)c5ccccc5)N4C(=O)C(NC(=O)C(C)NC)C3)c2)CCC2CCC(C(=O)NC(c3ccccc3)c3ccccc3)N2C1=O : 25.5
COc1c(OCCCN2CCOCC2)ccc2c3n(c(=NC(=O)c4cnc(N)nc4)nc12)CCN3 + Cc1c(S(C)(=O)=O)c(-c2cc(F)cc(N3CCN(c4ccc(NS(=O)(=O)c5ccc(NC(CCN6CCC(C(=O)OCCCP(=O)(O)O)CC6)CSc6ccccc6)c(S(=O)(=O)C(F)(F)F)c5)cc4)CC3)c2)c(-c2ccc(Cl)cc2)n1C(C)C : 7.85

Would you kindly look at the next entry?
Q) In one line, give reported viability, T/C of the entry CCN1CCN(Cc2ccc(Nc3ncc(F)c(-c4cc(F)c5nc(C)n(C(C)C)c5c4)n3)nc2)CC1 + Cc1c(S(C)(=O)=O)c(-c2cc(F)cc(N3CCN(c4ccc(NS(=O)(=O)c5ccc(NC(CCN6CCC(C(=O)OCCCP(=O)(O)O)CC6)CSc6ccccc6)c(S(=O)(=O)C(F)(F)F)c5)cc4)CC3)c2)c(-c2ccc(Cl)cc2)n1C(C)C .
A) 9.27

Provenance of the data: PubChem BioAssay AID1963431
